Molecular target: 5-HT1A receptor (Sus scrofa, UniProt A0A4X1UTF5)
Rule: measured IC50 below 600 nM gets MET; anything equal to or greater than 600 nM gets NOT MET.

>>> df
                                 smilesdata  assignedlabel
0  CN(C)CCc1c[nH]c2ccc(CN3CCCN(C)S3(=O)=O)cc12            MET

Input line: Regarding CC(=O)Nc1ccc(CN2CCN(Cc3ccc4[nH]cc(CCN(C)C)c4c3)S2(=O)=O)cc1 , kindly confirm whether its IC50 is beneath 600 nM.
Output line: MET

Input line: Field: below-cutoff. Rule: recorded IC50 strictly less than 600 nM. Subject: CN(C)CCc1c[nH]c2ccc(N3CCN(C)S3(=O)=O)cc12
Output line: NOT MET

Input line: Check if IC50 falls below 600 nM for CCN1CCN(CCc2ccc3[nH]cc(CCN(C)C)c3c2)S1(=O)=O .
Output line: MET

Input line: Hi there! Is IC50 for CC(C)N1CCN(Cc2ccc3[nH]cc(CCN(C)C)c3c2)S1(=O)=O below 600 nM, do you know?
Output line: MET

Input line: Is IC50 of CNS(=O)(=O)Cc1ccc2[nH]cc(CCN(C)C)c2c1 strictly below 600 nM?
Output line: MET

Input line: Dear reviewer, please state whether CN(C)CCc1c[nH]c2ccc(CCN3CCN(C)S3(=O)=O)cc12 has IC50 strictly beneath 600 nM.
Output line: MET

----------
Biological target: 5-hydroxytryptamine receptor 2A (Rattus norvegicus, UniProt P14842)
Sequence (P14842 whole entry): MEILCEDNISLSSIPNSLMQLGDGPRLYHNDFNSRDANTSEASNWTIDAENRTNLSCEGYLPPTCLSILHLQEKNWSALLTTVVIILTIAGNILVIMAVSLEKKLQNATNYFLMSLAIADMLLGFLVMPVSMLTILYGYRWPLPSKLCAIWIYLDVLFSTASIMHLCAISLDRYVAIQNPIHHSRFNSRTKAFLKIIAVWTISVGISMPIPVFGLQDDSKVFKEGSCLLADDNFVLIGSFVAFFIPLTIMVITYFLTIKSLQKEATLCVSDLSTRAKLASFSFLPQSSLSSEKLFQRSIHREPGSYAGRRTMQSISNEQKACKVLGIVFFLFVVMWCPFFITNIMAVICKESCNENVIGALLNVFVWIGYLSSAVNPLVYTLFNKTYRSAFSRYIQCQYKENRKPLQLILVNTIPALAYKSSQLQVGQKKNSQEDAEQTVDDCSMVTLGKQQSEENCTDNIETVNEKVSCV
Assay: Displacement of [3H]DOB binding to 5-hydroxytryptamine 2A receptor from rat cortex homogenate
IC50 overview
Please state the figure in µM; there is no need to write the unit.

Sample records with IC50:
                                 smilesdata  unitlabel  endpointresult
0  CN(C)CCc1c[nH]c2ccc(CCN3CCN(C)S3(=O)=O)cc12         µM            2.51
1  CN(C)CCc1c[nH]c2ccc(CCN3CCNS3(=O)=O)cc12         µM            5.01
2  CN(C)CCc1c[nH]c2ccc(N3CCN(Cc4ccccc4)S3(=O)=O)cc12         µM            5.01

Input line: So what's the measured IC50 for this one? CCN1CCN(CCc2ccc3[nH]cc(CCN(C)C)c3c2)S1(=O)=O
Output line: 2

Input line: For CN1CCN(Cc2ccc3scc(CCN)c3c2)S1(=O)=O , what is its reported IC50?
Output line: 2

Input line: Can you look up the measured IC50 of CC(=O)Nc1ccc(CN2CCN(Cc3ccc4[nH]cc(CCN(C)C)c4c3)S2(=O)=O)cc1 for me?
Output line: 7.94

----------
5-hydroxytryptamine receptor 1D (Sus scrofa) data, read-out IC50
The response must be a number in nM with no trailing unit.

                                 smilesdata                                testtarget  experimentalreadout  endpointresult
0  CN(C)CCc1c[nH]c2ccc(N3CCN(C)S3(=O)=O)cc12  5-hydroxytryptamine receptor 1D (Sus scrofa)                 IC50             100
1  CN(C)CCc1c[nH]c2ccc(CN3C(C)(C)CNS3(=O)=O)cc12  5-hydroxytryptamine receptor 1D (Sus scrofa)                 IC50             200
2  CN(C)CCc1c[nH]c2ccc(CN3CCCN(C)S3(=O)=O)cc12  5-hydroxytryptamine receptor 1D (Sus scrofa)                 IC50            63.1

Now let's try a different one.
Input line: What IC50 appears in the records for this compound with 5-hydroxytryptamine receptor 1D (Sus scrofa)? CNCCc1c[nH]c2ccc(CN3CCN(C)S3(=O)=O)cc12
Output line: 100

----------
The entries below come with measured pIC50 values attached.
Molecular target: 5-hydroxytryptamine receptor 1D (Sus scrofa, UniProt P79400)
Sequence (P79400 whole entry): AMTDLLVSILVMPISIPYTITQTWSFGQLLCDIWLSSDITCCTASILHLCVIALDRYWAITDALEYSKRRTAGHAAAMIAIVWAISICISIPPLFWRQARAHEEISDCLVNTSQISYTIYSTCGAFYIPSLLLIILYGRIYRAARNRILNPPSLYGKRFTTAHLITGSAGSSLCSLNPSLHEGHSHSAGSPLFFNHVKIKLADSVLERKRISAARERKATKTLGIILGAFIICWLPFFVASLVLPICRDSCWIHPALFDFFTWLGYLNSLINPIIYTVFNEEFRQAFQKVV
Recall that pIC50 is obtained by taking minus log10 of the concentration measured in molar.

>>> df
                                 smilesdata  experimentalreadout  endpointresult
0  CN(C)CCc1c[nH]c2ccc(N3CCN(Cc4ccccc4)S3(=O)=O)cc12                pIC50            7.70
1  CC(C)N1CCN(Cc2ccc3[nH]cc(CCN(C)C)c3c2)S1(=O)=O                pIC50            7.00
2  CN(C)CCc1c[nH]c2ccc(CN3CCN(C)S3(=O)=O)cc12                pIC50            7.20

Input line: Param readout= pIC50; system= 5-hydroxytryptamine receptor 1D (Sus scrofa, UniProt P79400); entry= CN(C)CCc1c[nH]c2ccc(CN3CCNS3(=O)=O)cc12 ; returns value.
Output line: 7.00

Input line: Which measured pIC50 belongs to CC(=O)Nc1ccc(CN2CCN(Cc3ccc4[nH]cc(CCN(C)C)c4c3)S2(=O)=O)cc1 , tested on 5-hydroxytryptamine receptor 1D (Sus scrofa, UniProt P79400)?
Output line: 7.70

----------
Experiment: Partition coefficient at pH 7.4
Assay type: physicochemical
Details: octanol/water
Quick reference: logD of the listed items.
// response body must contain only the number

Illustrative cases are given below, each with its answer.
>>> df
                                 smilesdata  endpointresult
0  CN(C)CCc1c[nH]c2ccc(CN3CC(C)(C)NS3(=O)=O)cc12           -0.39
1  CN(C)CCc1c[nH]c2ccc(CN3CCCN(C)S3(=O)=O)cc12           -0.02
2  CC(=O)Nc1ccc(CN2CCN(Cc3ccc4[nH]cc(CCN(C)C)c4c3)S2(=O)=O)cc1            0.42
3  CN(C)CCc1c[nH]c2ccc(CN3C(C)(C)CNS3(=O)=O)cc12           -0.78
4   CNCCc1c[nH]c2ccc(CN3CCN(C)S3(=O)=O)cc12           -1.71

Input line: Query (compound): CN(C)CCc1c[nH]c2ccc(CN3CCN(C)S3(=O)=O)cc12 ; field requested: logD
Output line: -0.68

Input line: Bench note: what logD did CC(C)N1CCN(Cc2ccc3[nH]cc(CCN(C)C)c3c2)S1(=O)=O show?
Output line: 0.16

Input line: Need logD of CN(C)CCc1c[nH]c2ccc(CN3CCNS3(=O)=O)cc12 , thanks.
Output line: -0.97

Input line: GET /values?readout=logD&item= CN(C)CCc1c[nH]c2ccc(CCN3CCN(C)S3(=O)=O)cc12
Output line: -0.57

Input line: Which measured logD value corresponds to CN(C)CCc1c[nH]c2ccc(N3CCN(C)S3(=O)=O)cc12 ?
Output line: -0.92

----------
Below is a list of entries, each paired with its recorded IC50 value.
Molecular target: 5-hydroxytryptamine receptor 1D (Sus scrofa, UniProt P79400)
Assay: Displacement of [3H]5-HT binding to 5-hydroxytryptamine 1D receptor from pig caudate membrane
Give your result as the value with the unit written after it.

>>> df
                                 smilesdata  endpointresult
0  CN(C)CCc1c[nH]c2ccc(CCN3CCNS3(=O)=O)cc12         39.8 nM
1  CCN1CCN(CCc2ccc3[nH]cc(CCN(C)C)c3c2)S1(=O)=O         39.8 nM

Input line: Quick one: IC50 of CN1CCN(Cc2ccc3[nH]cc(CCN)c3c2)S1(=O)=O ?
Output line: 316 nM

----------
Biological target: UniProt A0A4X1UTF5
# label = class 1 if IC50 < 800 nM else class 0

In [3]: df
Out[3]:
                                 smilesdata  assignedlabel
0  CN(C)CCc1c[nH]c2ccc(CN3C(C)(C)CNS3(=O)=O)cc12        class 0
1  CN(C)CCc1c[nH]c2ccc(CN3CC(C)(C)NS3(=O)=O)cc12        class 1
2       CN1CCN(Cc2ccc3scc(CCN)c3c2)S1(=O)=O        class 0
3  CN(C)CCc1c[nH]c2ccc(N3CCN(Cc4ccccc4)S3(=O)=O)cc12        class 1

Input line: I wonder whether CN1CCN(Cc2ccc3[nH]cc(CCN)c3c2)S1(=O)=O has IC50 below 800 nM. Can you tell?
Output line: class 1

Input line: Is it true that IC50 reported for CN(C)CCc1c[nH]c2ccc(CCN3CCNS3(=O)=O)cc12 is less than 800 nM?
Output line: class 1

----------
Target: 5-hydroxytryptamine receptor 1D (Sus scrofa, UniProt P79400)
experimentalReadout: pIC50
The quantity pIC50 is defined as the negative base-10 logarithm of the molar concentration.

Input line: What reported pIC50 corresponds to CN(C)CCc1c[nH]c2ccc(CN3CC(C)(C)NS3(=O)=O)cc12 on 5-hydroxytryptamine receptor 1D (Sus scrofa, UniProt P79400)?
Output line: 7.00

Input line: pIC50 of CN(C)CCc1c[nH]c2ccc(CCN3CCN(C)S3(=O)=O)cc12 on 5-hydroxytryptamine receptor 1D (Sus scrofa, UniProt P79400)?
Output line: 7.40

Input line: Item CN1CCN(Cc2ccc3scc(CCN)c3c2)S1(=O)=O with 5-hydroxytryptamine receptor 1D (Sus scrofa, UniProt P79400) - pIC50?
Output line: 6.40
